Tested on: MOLT-4
procedure_text: NCI tumour cell line growth inhibition, 48 h
Active and inactive are the calls of the source. Cut-off read from the data, not from the text of the source: active = GI50 up to about 1.1 µM and inactive = higher.
quantity_name: GI50

> print(dat)
                                    compound  experimental.system       measured.value
 1  CCN1CCC(O)(c2ccc(Oc3ccc(Cl)cc3)cc2)C(C(=O)c2ccc(Oc3ccc(Cl)cc3)cc2)C1 (stereo not given)               MOLT-4   8.45 µM (inactive)
 2  COC(=O)[C@]12CCC(=O)N1[C@H](C(=O)O)Cc1c2[nH]c2ccccc12               MOLT-4  > 100 µM (inactive)
 3  CC(=O)NC1C(Sc2ncn(C3OC(CO)C(O)C(O)C3NC(C)=O)n2)OC(CO)C(O)C1O (stereo not given)               MOLT-4  > 100 µM (inactive)
 4  CC(=O)OC1CC[C@@]2(C)C(=CC[C@@H]3[C@@H]2CC[C@]2(C)Nc4c(cnn4-c4ccc(F)cc4)C[C@@H]32)C1 (stereo not given in full)               MOLT-4   2.02 µM (inactive)
 5              O=C1C=CC(=O)c2nc3c(cc21)CCC3               MOLT-4   11.6 µM (inactive)
 6            Nc1cccc2c1C(=O)c1cccc(N)c1C2=O               MOLT-4  > 100 µM (inactive)
 7             O=C(C/C(=N/O)C(F)(F)F)c1cccs1               MOLT-4  > 100 µM (inactive)
 8  Cc1nc(-n2nc(-c3ccccc3)cc2-c2ccccc2)sc1C(/C=C/c1ccc([N+](=O)[O-])cc1)=N/NC(=O)c1ccncc1               MOLT-4   6.89 µM (inactive)
 9  NC(Cc1ccccc1)P(=O)(O)O (stereo not given)               MOLT-4  > 100 µM (inactive)
10       COc1cc(CNC(=S)CCCCCCCCCCC(C)C)ccc1O               MOLT-4   5.92 µM (inactive)
